- METHOD SUMMARY: Metabolic stability human hepatocytes assessed as intrinsic clearance at 1 uM measured up to 120 mins by LC-MS/MS analysis
- Assay type: ADME, cell-based, Hepatocyte
- MEASUREMENT SETUP: read-out: CLH
ENDPOINT NAME: CLint scaled at 1 µM (mL/min/kg)
I only need the number, in mL/min/kg, no unit after it.

Consider the molecule shown here: CN1CCC([C@@](C)(O)c2ccc3cnc(Nc4cc(C(F)(F)F)ncc4F)cc3n2)CC1 What is its recorded CLint scaled at 1 µM?
13

----------
Each item that follows carries a reported solubility kinetic at 2 h.
- METHOD SUMMARY: Kinetic aqueous solubility of compound in PBS at pH 7.4 incubated for 2 hrs by LC-MS/MS analysis
- Type: physicochemical
- MEASUREMENT SETUP: read-out: Kinetic_solubility
Unit µM implied. Number only.

STRUCTURE: CN1CCC([C@@](C)(O)c2ccc3cnc(Nc4cc(N5CCOCC5)ncc4F)cc3n2)CC1
solubility kinetic at 2 h (µM): 274

Okay, next one:
Recorded solubility kinetic at 2 h for CN1CCC([C@@](C)(O)c2ccc3cnc(Nc4cc(C(F)(F)F)ncc4F)cc3n2)CC1 , please?
259
